target: human MCH-1R (human, UniProt Q99705 1-353); experiment: cell-based or functional assay
Sequence (Q99705 whole entry, form in doubt): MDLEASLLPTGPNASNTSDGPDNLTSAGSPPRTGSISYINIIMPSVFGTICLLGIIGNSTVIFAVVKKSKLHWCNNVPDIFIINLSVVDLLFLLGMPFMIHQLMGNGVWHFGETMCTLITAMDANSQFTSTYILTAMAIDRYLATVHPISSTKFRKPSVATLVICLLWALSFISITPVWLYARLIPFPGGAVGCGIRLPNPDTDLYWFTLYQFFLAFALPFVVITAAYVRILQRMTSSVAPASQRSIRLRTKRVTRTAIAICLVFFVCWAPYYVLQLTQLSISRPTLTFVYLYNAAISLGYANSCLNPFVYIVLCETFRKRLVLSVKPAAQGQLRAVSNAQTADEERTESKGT
Bridges are numbered along the chain shown (N, C = ends).
Consider the following binders; for each one, report its Activation % at 10 µM (aequorin functional assay).

These solved cases illustrate the format of a correct answer.
{"BINDER": "RCMLGRVXRPC (Phe(pNH2)^13) [SEQ. ID. NO. 30]", "ASSAY_VALUE": "88%"}
{"BINDER": "Ac-RCMLGRVFRPC-NH2 (disulfide 2-11; SMILES CSCC[C@@H]1NC(=O)[C@@H](NC(=O)[C@H](CCCNC(=N)N)NC(C)=O)CSSC[C@@H](C(N)=O)NC(=O)[C@@H]2CCCN2C(=O)[C@H](CCCNC(=N)N)NC(=O)[C@H](Cc2ccccc2)NC(=O)[C@H](C(C)C)NC(=O)[C@H](CCCNC(=N)N)NC(=O)CNC(=O)[C@H](CC(C)C)NC1=O, also called Phe^13) [SEQ. ID. NO. 27]", "ASSAY_VALUE": "96%"}

Continue with the next binder.
Ask: Dear colleague, I am looking for the recorded Activation % at 10 µM (aequorin functional assay) of the following binder: Ac-RCMLSRVYRPC-NH2 (disulfide 2-11; SMILES CSCC[C@@H]1NC(=O)[C@@H](NC(=O)[C@H](CCCNC(=N)N)NC(C)=O)CSSC[C@@H](C(N)=O)NC(=O)[C@@H]2CCCN2C(=O)[C@H](CCCNC(=N)N)NC(=O)[C@H](Cc2ccc(O)cc2)NC(=O)[C@H](C(C)C)NC(=O)[C@H](CCCNC(=N)N)NC(=O)[C@H](CO)NC(=O)[C@H](CC(C)C)NC1=O, also called Ser^10) [SEQ. ID. NO. 10]
Result: 104%
